measurementTarget: Gal4 DNA binding domain fused to the LBD of LXRβ in HEK293 cells (Homo sapiens (Human), UniProt P55055)
Sequence (P55055 222-460 limits assumed): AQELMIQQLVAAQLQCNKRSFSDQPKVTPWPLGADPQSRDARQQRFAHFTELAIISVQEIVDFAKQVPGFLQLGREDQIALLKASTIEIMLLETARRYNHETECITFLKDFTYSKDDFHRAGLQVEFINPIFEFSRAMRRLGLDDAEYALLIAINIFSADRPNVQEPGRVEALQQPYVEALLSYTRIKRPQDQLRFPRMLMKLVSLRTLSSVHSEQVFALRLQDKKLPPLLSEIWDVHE
assayNotes: cell-based
Documented Cell LXRβ efficacy across a set of compounds

compound	Cell LXRβ efficacy
CC(C)[C@@H]1CN(c2ccc(F)c(S(C)(=O)=O)c2)CCN1c1nc2c(F)cccc2s1 [7-54]	77 (80) %
Cc1nc(N2CCN(c3cccc(S(C)(=O)=O)c3)C[C@H]2C(C)C)ccc1C(F)(F)F [Cpd No 37-2]	49 (98) %
CC(C)[C@H]1CN(c2cccc(S(C)(=O)=O)c2)CCN1C[C@H]1CC[C@H](C(F)(F)F)OC1 (single isomer, unassigned) [Cpd No 49-6]	114 (67) %
CC(C)[C@@H]1CN(c2ccc(F)c(S(C)(=O)=O)c2)CCN1c1nc2ccccc2s1 [7-56]	99 (51) %
CC(C)[C@@H]1CN(c2ccc(F)c(S(C)(=O)=O)c2)CCN1c1ncc(C(O)C(F)(F)F)cn1 (stereo partly shown) [Cpd No 41-1]	305 (19) %
CS(=O)(=O)c1cccc(N2CCN(CC3CCN(CC(F)(F)F)CC3)[C@@H](c3ccccc3Cl)C2)c1 (single isomer, unassigned) [48-55]	547 (19) %
CS(=O)(=O)c1cc(N2CCN(C[C@H]3CC[C@@H](C(F)(F)F)CC3)[C@H](c3ccccc3Cl)C2)ccc1C(N)=O (single isomer, unassigned) [Cpd No 4-9]	5047 (31) %
